RESULT TYPE: melting point

As a guide, the following entries are already answered.
| MOLECULE | melting point |
| --- | --- |
| Oc1ccc(CCNc2ncnc3scnc23)cc1 | 161 to 168 °C |
| CN(C)CCNC(=O)c1ccc(-c2nnc(CSCCOc3ccccc3)o2)cc1 | 94 to 100 °C |
| COC(=O)c1cc(=O)c2cc(OC)cc(N)c2o1 | 145 to 147 °C |
| Nc1c(Cl)cc(C(=O)Cl)cc1C(F)(F)F | 110 to 115 °C |

// recorded melting point for CN1CC=C(c2c[nH]c3ccc(NC(=N)c4ccco4)cc23)CC1 : 212 to 215 °C

Per the records, this molecule ( O=C1CCC(c2ccccc2)(c2ccccc2)C2CN(C(Cc3ccccc3)=NCc3ccccn3)CC12 (centres undefined) ) has melting point equal to 180 °C

Reported melting point ( CSc1nc(=O)cc(C)n1C1CCCCC1 ) = 184 to 186 °C

Data point: N#CC1(c2ccccc2)CCN(C(=O)N2CCCc3ccccc32)CC1 ; melting point = 53 to 59 °C

melting point reading for CCCCOc1c(CNC(=O)OC(C)(C)C)n(CC(C)C)c(=O)c2ccc(-c3nc(C)c(C#N)s3)cc12 : 148 to 150 °C

Recorded melting point (molecule CCCCOCCOc1ccc(-c2ccc(N3CCC(C(=O)OC)C3)c(C=C(C)C(=O)O)c2)cc1 (centres undefined) ): 140 to 141 °C

The value of melting point measured for the molecule Cc1cncc(-c2nc3cc(NC(=O)c4c(C(=O)N5CCC5)cnn4C)ccn3n2)c1 turned out to be 262 to 264 °C

Value of measured melting point for the entry CCCCNC(=O)Nc1ccc(NC)cc1C(=O)NCC1CCN(C(c2ccccc2)c2ccccc2)CC1 : 203 to 204 °C

Recorded melting point (molecule O=[N+]([O-])c1ccccc1COc1cccc2cccnc12 ): 152 °C

GET /value?item= O=C(O)CCCOc1cccc(CCCCCCOc2ccc3c(c2C/C=C/c2ccccc2)CCCC3=O)c1CCC(=O)O &field=melting point returns 102 to 104 °C

The reported melting point of the molecule Cc1ccc2c(-c3cc(C(C)(C)C)c(O)c(C(C)(C)C)c3)nn(CCO)c2n1 was 183 to 185 °C

For record CN1CCN(CCc2ccc(Nc3ncc4c(n3)-c3ccccc3C(c3ccccc3C(F)(F)F)C4)cc2)CC1 (centres undefined) the listed melting point is 157 to 158 °C

Noted for CCCCC(=O)N(Cc1ccc(OC(F)(F)F)c(Cl)c1)c1cc(F)cc(-c2nnn[nH]2)c1 : its melting point reads 137 °C

Recorded melting point (molecule COc1ccc(C(=O)NCCCCCCCCCCCNC(=O)c2ccc(OC)cc2)cc1 ): 150 to 151 °C

Value of melting point reported for the molecule O=C1CCC2(F)C3Cc4ccc(O)c5c4C2(CCN3CC2CC2)C1O5 (centres undefined) is 188 to 190 °C

Just so you know, measured melting point for COC(=O)COc1ccc(C(=O)CN(C)C(=O)OCc2ccccc2)cc1OCC(=O)OC came out at 56 to 59 °C

Item: CCCc1nc(C(C)(C)O)c(C(=O)OC(C)OC(=O)OC(C)C)n1Cc1ccc(-c2ccccc2C(=O)O)cc1 (centres undefined) | melting point: 94 to 96 °C

Please fill in: melting point reported for COc1ccc(C=O)c(Cl)c1Cl = 112 to 113 °C
